Data credit: ChEMBL document CHEMBL1201862

Provide the reported GI50 of each item.
System: Malme-3M
procedureDetails: NCI tumour cell line growth inhibition, 48 h
Active and inactive are the calls of the source. No stated cut-off is given here; in the data, active = GI50 up to about 1.1 µM and inactive = higher.

compound=COc1ccc(C(c2ccc(C(C)C)cc(OC)c2=O)c2ccc(C(C)C)cc(OC)c2=O)cc1 assayvalue="16.5 µM (inactive)"

Quick one: give me GI50 for each item below, same order please.
1. c1ccc([S+](c2ccccc2)c2ccc(Sc3ccc([S+](c4ccccc4)c4ccccc4)cc3)cc2)cc1
2. COC(=O)C1CC2(CCC1=O)Cc1ccccc1C2=O (stereo not given)
3. O=S(=O)(Nc1nccs1)c1ccc(Nc2nc(-c3cccs3)nc3ccc(I)cc23)cc1
4. N/C(CCSCCSCC/C(N)=N\O)=N\O

**Result**
32.6 µM (inactive)
> 100 µM (inactive)
14.3 µM (inactive)
> 100 µM (inactive)

---

Provide the reported GI50 of each item.
System: LXFL 529
procedureDetails: NCI tumour cell line growth inhibition, 48 h
Active and inactive are the calls of the source. Cut-off read from the data, not from the text of the source: active = GI50 up to about 1.1 µM and inactive = higher.

Recorded GI50, per entry:
compound="C=C1CC2C(=O)N(c3ccccc3)C(=O)C2CC1n1[nH]c(=O)n(Cc2ccccc2)c1=O (stereo unspecified)" assayvalue="> 100 µM (inactive)"
compound="Nc1nc(SCCNC(=O)CCc2ccc(O)c(I)c2)nc2c1ncn2C1OC(CO)C(O)C1O (stereo unspecified)" assayvalue="> 100 µM (inactive)"
compound=COCCOCC(=O)N(CCn1ccc(NC(c2ccccc2)(c2ccccc2)c2ccccc2)nc1=O)CCn1cnc2nc(N)[nH]c(=O)c21 assayvalue="> 100 µM (inactive)"
compound="C/C=C1\\CN2CCc3c([nH]c4ccccc34)C2CC1C(=O)OC (stereo unspecified)" assayvalue="> 322 µM (inactive)"
compound=Cc1ccc(/C=N/NS(=O)(=O)c2ccccc2)cc1 assayvalue="> 100 µM (inactive)"

Quick one: give me GI50 for each item below, same order please.
1. CCCCCCCCCCOC(=O)NCCC
2. COC1OC(C)C2OC(C)(C)OC2C1OC(C)=O (stereo unspecified)

**Result**
1: 38 µM (inactive); 2: > 100 µM (inactive)

Quick one: give me GI50 for each item below, same order please.
1. Cc1ccc2nc3c(C(=O)NCCN(C)C)cccc3nc2c1
2. CCOC(=O)C(C)(C)Oc1ccc2c(C)c(-c3ccc(Cl)cc3)c(=O)oc2c1
3. NCCCNCCS
4. Cc1oc2c(C)c3oc(=O)cc(C)c3cc2c1CNC(=O)[C@@H]1OCCOCCOCCOCCOCCOC1C(=O)O (stereo partly specified)
5. CCOC(=O)/C(C#N)=C1/SC(C(=O)N/N=C/c2ccc(OC)cc2)=C(N)N1c1ccccc1
6. COc1ccc(/N=N/c2c(-c3ccccc3)nn(C(=O)CC(=O)Nc3cccc(Cl)c3)c2-c2ccccc2)cc1

**Result**
["7.38 µM (inactive)", "34.1 µM (inactive)", "> 100 µM (inactive)", "8.15 µM (inactive)", "60.4 µM (inactive)", "> 100 µM (inactive)"]

Quick one: give me GI50 for each item below, same order please.
1. N#CC(NNC(=O)c1ccccc1O)c1cccc(O)c1 (stereo unspecified)
2. COc1ccc(/C=N/N=C(N)N)c(C(=O)O)c1OC

**Result**
4.31 µM (inactive)
> 100 µM (inactive)

Quick one: give me GI50 for each item below, same order please.
1. CCOC(=O)C1S/C(=N\C(=N)N[N+](=O)[O-])N=C1C (stereo unspecified)
2. C[C@]12CC[C@H](OCCC#N)CC1=CC[C@@H]1C2CC[C@]2(C)/C(=N/OCCC#N)CCC12 (stereo partly specified)

**Result**
1. > 100 µM (inactive)
2. > 74.6 µM (inactive)

Quick one: give me GI50 for each item below, same order please.
1. N/N=C(\c1nc2ccc(Cl)cc2nc1O)C(O)c1ccc(Cl)c(Cl)c1 (stereo unspecified)
2. O=C1OCCC1C(O)C1c2ccccc2-c2ccccc21 (stereo unspecified)
3. CC(=O)OC[C@@H]1[C@H]2CC(=O)O[C@H]2C[C@H]1OC(C)=O
4. COc1cc(CC2C(=O)OCC2[C@@H](OC(C)=O)c2ccc3c(c2)OCO3)c(Br)c(OC)c1OC (stereo partly specified)

**Result**
1. > 100 µM (inactive)
2. > 100 µM (inactive)
3. > 100 µM (inactive)
4. 33.9 µM (inactive)

---

Tested on: MCF7
procedureDetails: NCI tumour cell line growth inhibition, 48 h
Calls of active or inactive are those of the source. Cut-off read from the data, not from the text of the source: active = GI50 up to about 1.1 µM and inactive = higher.
Pick from y = active, n = inactive when you respond.

See these solved cases before continuing.
molecule=Cc1sc2[nH]c(=O)oc(=O)c2c1C targetofassay=MCF7 classification=n
molecule=COC[C@H](Cc1ccccc1)/N=C/c1ccccc1 targetofassay=MCF7 classification=n

**Query** Lab log entry: COc1ccc2c(c1)CC[C@@H]1C2CC[C@]2(C)C(=O)N(CCN(C)C)C(=O)CC12 (stereo not given in full) — outcome as called in the assay?
**Result** n

**Query** Lab log entry: COc1cc2nc3n(c(=O)c2cc1OC)CCCCC3 — outcome as called in the assay?
**Result** n

**Query** Lab log entry: CCc1nc(N)nc(N)c1-c1ccc(Cl)c(N=[N+]=[N-])c1 — outcome as called in the assay?
**Result** n

**Query** Lab log entry: Cc1cc(C)cc(C(=N)c2ccccc2Cc2cccc3ccccc23)c1 — outcome as called in the assay?
**Result** n

**Query** Lab log entry: CC(=O)Nc1nc(O)c2nc(C=O)cnc2n1 — outcome as called in the assay?
**Result** n

**Query** Lab log entry: C=C1C(C(O)C[C@H](C)C2O[C@@]3(CCCCO3)CCC2C)O[C@@H]2CCC3(CCC(/C=C/[C@@H](C)C4CC(C)=CC5(O4)O[C@H](C[C@](C)(O)C(=O)O)CCC5O)O3)OC2[C@@H]1O (stereo not given in full) — outcome as called in the assay?
**Result** y

**Query** Lab log entry: CC(=N/NC(=S)N(C)C)/C(=N\NC(=S)N(C)C)c1ccccc1 — outcome as called in the assay?
**Result** n

**Query** Lab log entry: O=C(Oc1ccccc1)c1cc2cc(CCl)ccc2oc1=O — outcome as called in the assay?
**Result** n

---

Test system: HT-29
procedureDetails: NCI tumour cell line growth inhibition, 48 h
Active and inactive are the calls of the source. No stated cut-off is given here; in the data, active = GI50 up to about 1.1 µM and inactive = higher.
Pick from active, inactive when you respond.

**Query** Lab log entry: CCC(=O)Nc1cccc(NC(=O)c2c(Cl)c(Cl)c(Cl)c(Cl)c2-c2nc3ccccc3[nH]2)c1 — outcome as called in the assay?
**Result** inactive

**Query** Lab log entry: CC(C)(C)CN1[C@@H]2CCCC[C@H]2N(CC(C)(C)C)P1(=O)Cc1ccccc1 — outcome as called in the assay?
**Result** inactive

**Query** Lab log entry: CC(O)c1nc(C#N)c(N)o1 (configuration not stated) — outcome as called in the assay?
**Result** inactive

**Query** Lab log entry: CC1=NN(C(=O)c2ccc(Cl)cc2)C(=O)/C1=C/c1cccc(O)c1 — outcome as called in the assay?
**Result** inactive

**Query** Lab log entry: CC(C)NC(=O)OCc1c(COC(=O)NC(C)C)c(-c2ccc[n+](COC(=O)C3CC3)c2)n2c1CCC2 — outcome as called in the assay?
**Result** inactive

**Query** Lab log entry: O=c1c(Cc2c(O)oc3cc(O)ccc3c2=O)c(O)oc2cc(O)ccc12 — outcome as called in the assay?
**Result** inactive

**Query** Lab log entry: COc1ccccc1NC(=O)C(=O)C1C(=O)Nc2ccccc2[S+]1[O-] (configuration not stated) — outcome as called in the assay?
**Result** inactive

**Query** Lab log entry: O=C1c2ccccc2-c2c1c(-c1ccc(F)cc1)nc1ccc3ccccc3c21 — outcome as called in the assay?
**Result** inactive

**Query** Lab log entry: CCCNc1c(Cl)cc(Cl)c2[nH]c3ccccc3c(=O)c12 — outcome as called in the assay?
**Result** inactive

**Query** Lab log entry: O=C(O)c1ccccc1/C=C1\Cc2cc3c(cc2C1=O)CCC3 — outcome as called in the assay?
**Result** inactive

**Query** Lab log entry: COc1ccc(OC)c(NC(=O)C(=O)C(C(=O)c2ccccc2F)C2OC(=O)c3ccccc32)c1 (configuration not stated) — outcome as called in the assay?
**Result** inactive

**Query** Lab log entry: Cc1cccc(/N=C/c2ccc(N(CCC#N)S(=O)(=O)c3ccccc3)cc2C)c1 — outcome as called in the assay?
**Result** inactive

**Query** Lab log entry: OCCSCc1cc(Cl)cc(Cl)c1O — outcome as called in the assay?
**Result** inactive

**Query** Lab log entry: CC1=C2c3ccccc3N(S(=O)(=O)c3ccccc3)[C@H]2[C@H](C(=O)N2C3CC4CC[C@@]3(CS2(=O)=O)C4(C)C)CC1 (some centres not stated) — outcome as called in the assay?
**Result** inactive
